Each recorded value in this set is attributed to patent US20080058263A1.

assayed.target: T1, VEGFR-3-Fc (UniProt P35916 25-328)
T1 construct: domain: first three Ig domains; conditioned supernatant of 293T cells; also called VEGFR-3-Fc fusion protein; not shown: Fc fragment of the pIg vector
T1 sequence (looked up): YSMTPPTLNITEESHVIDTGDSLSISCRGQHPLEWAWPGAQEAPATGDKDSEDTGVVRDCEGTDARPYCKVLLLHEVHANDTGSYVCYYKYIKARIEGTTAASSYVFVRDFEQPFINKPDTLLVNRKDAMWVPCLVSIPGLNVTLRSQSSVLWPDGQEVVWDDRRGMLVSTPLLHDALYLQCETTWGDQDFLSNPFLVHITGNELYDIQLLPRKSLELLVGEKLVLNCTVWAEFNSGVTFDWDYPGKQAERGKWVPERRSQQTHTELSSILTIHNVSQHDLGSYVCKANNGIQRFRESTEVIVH
method: receptor-Fc IP

# binder, binding result
rows = [
    ("62-11 (ligand) GQNHHEVVKFMDVYQRSYCHPREVCIDVGKEFGVATNTFFKPPCVSVYRCGGCCNSEGLQCVPTEESNITMQIMRITVPLSQGPKPVTISFLQHNKCECRPKKD", "binds"),
]
